Counter-ions that a name gives are not always drawn.
assay.readout: melting point

As a guide, the following entries are already answered.
melting point in this record for CCOC(=O)[C@@]1(O)C[C@@H](O)[C@H](O)c2sc(CCc3ccccc3)cc21 : 118 to 120 °C

melting point in this record for O=C(O)[C@@]1(O)C[C@@H](O)[C@H](O)C(OCc2cccs2)=C1Cc1cccs1 (as salt: sodium) (hydrate or solvate) [Ib-8] : 178 to 181 °C

melting point in this record for O=C([O-])[C@]1(O)C=C(OCc2ccc3sccc3c2)[C@@H](O)[C@H](O)C1.[Na+] (hydrate or solvate) [Ib-7] : 157 to 160 °C (dec.)

melting point in this record for CC(C)c1cc2c(s1)[C@@H](O)[C@H](O)C[C@]2(O)C(=O)O : 125 to 127 °C

melting point in this record for O=C([O-])[C@@]1(O)C[C@@H](O)[C@H](O)C(OCc2cccs2)=C1Cc1cc2ccccc2s1.[Na+] (hydrate or solvate) [Ib-12] : 191 to 194 °C

More entries:
melting point in this record for O=C([O-])[C@@]1(O)C[C@@H](O)[C@H](O)C(OCc2ccc3ccccc3c2)=C1Cc1ccc2ccccc2c1.[Na+] (hydrate or solvate) [Ib-11] : 184 to 187 °C

melting point in this record for O=C(O)[C@@]1(O)C[C@@H](O)[C@H](O)c2sc(/C=C/c3ccccc3)cc21 [Ic-11] : 200 °C (dec.)

====

# assayed.target: type II dehydroquinase from Streptomyces coelicolor (Streptomyces coelicolor, UniProt P15474)
# Sequence (P15474 whole entry): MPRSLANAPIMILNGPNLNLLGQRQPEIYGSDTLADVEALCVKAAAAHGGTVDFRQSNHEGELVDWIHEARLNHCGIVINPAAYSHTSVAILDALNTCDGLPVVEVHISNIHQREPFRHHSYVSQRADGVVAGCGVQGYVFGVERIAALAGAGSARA
# measurement.protocol: Inhibition of type II dehydroquinase from Streptomyces coelicolor (Ki)
# Type: biochemical
# particulars: pH = 7.0, 25° C., 50 mM Tris•HCl; read-out: Inhibition constants Ki, S. coelicolor
Using Ki as the sorting value, the categories are lower range: < 90 nM; middle range: ≥ 90 nM and < 2000 nM; upper range: ≥ 2000 nM

Solved entries:
Task item: Record C=Cc1cc2c(s1)[C@@H](O)[C@H](O)C[C@]2(O)C(=O)O — which class?
Reply: middle range

Task item: Record O=C(O)[C@@]1(O)C[C@@H](O)[C@H](O)c2sc(/C=C/c3ccccc3)cc21 — which class?
Reply: middle range

More entries:
Task item: Record CCc1cc2c(s1)[C@@H](O)[C@H](O)C[C@]2(O)C(=O)O — which class?
Reply: middle range

Task item: Record C/C=C/c1cc2c(s1)[C@@H](O)[C@H](O)C[C@]2(O)C(=O)O — which class?
Reply: middle range

Task item: Record O=C(O)[C@@]1(O)C[C@@H](O)[C@H](O)c2sccc21 — which class?
Reply: upper range

Task item: Record C=C(C)c1cc2c(s1)[C@@H](O)[C@H](O)C[C@]2(O)C(=O)O — which class?
Reply: middle range

Task item: Record C=C(c1ccccc1)c1cc2c(s1)[C@@H](O)[C@H](O)C[C@]2(O)C(=O)O — which class?
Reply: upper range

Task item: Record O=C(O)[C@]1(O)C=C(OCc2cc3ccccc3s2)[C@@H](O)[C@H](O)C1 — which class?
Reply: lower range

Task item: Record O=C(O)[C@@]1(O)C[C@@H](O)[C@H](O)c2sc(-c3ccccc3)cc21 — which class?
Reply: lower range

====

# assayed.target: type II dehydroquinase from Helicobacter pylori (Helicobacter pylori)
# Sequence (Q48255 1-167): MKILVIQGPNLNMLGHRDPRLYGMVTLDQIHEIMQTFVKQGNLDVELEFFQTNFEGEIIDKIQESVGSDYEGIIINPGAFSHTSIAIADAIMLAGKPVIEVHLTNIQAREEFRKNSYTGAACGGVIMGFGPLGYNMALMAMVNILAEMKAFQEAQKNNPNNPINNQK
# measurement.protocol: Inhibition of type II dehydroquinase from Helicobacter pylori (Ki)
# Assay type: biochemical
# particulars: Inhibition constants Ki, H. pylori, pH = 7.0, 25° C., 50 mM Tris•HCl
assay.readout: pKi
Keep in mind that pKi stands for -log10 of concentration in molar terms.

As a guide, the following entries are already answered.
pKi in this record for O=C(O)[C@@]1(O)C[C@@H](O)[C@H](O)c2sccc21 [Ic-1] : 4.47

pKi in this record for O=C(O)[C@@]1(O)C[C@@H](O)[C@H](O)c2sc(CCc3ccccc3)cc21 [Ic-12] : 5.77

More entries:
pKi in this record for Cc1cc2c(s1)[C@@H](O)[C@H](O)C[C@]2(O)C(=O)O [Ic-2] : 5.80

====

# assayed.target: type II dehydroquinase from Streptomyces coelicolor (Streptomyces coelicolor, UniProt P15474)
# measurement.protocol: Inhibition of type II dehydroquinase from Streptomyces coelicolor (Ki)
# Format: biochemical
# particulars: pH = 7.0, 25° C., 50 mM Tris•HCl; read-out: Inhibition constants Ki, S. coelicolor
# Procedure: Effect of compounds of formula I of the invention on the catalytic activity of the type II dehydroquinase from various sources. The inhibitory potency of compounds I of the invention against type II dehydroquinases from Mycobacterium tuberculoris, Streptomyces coelicolor and Helicobacter pylori were assayed as it is described in the following articles: 1) Sanchez-Sixto, C.; Prazeres, V. F. V.; Castedo, L.; Lamb, H.; Hawkins, A. R.; Gonzalez-Bello, C. […]
Threshold-based label: Ki under 30 nM gives True, Ki not under 30 nM gives False.

Task item: Dear colleague, could you confirm whether Ki of O=C(O)[C@]1(O)C=C(OCc2ccc3ccccc3c2)[C@@H](O)[C@H](O)C1 [Ib-.10] falls below 30 nM? Thanks.
Reply: True

Task item: Dear colleague, could you confirm whether Ki of O=C(O)[C@@]1(O)C[C@@H](O)[C@H](O)C(OCc2ccc3ccccc3c2)=C1Cc1ccc2ccccc2c1 [Ib-11] falls below 30 nM? Thanks.
Reply: False

Task item: Dear colleague, could you confirm whether Ki of Cc1cc2c(s1)[C@@H](O)[C@H](O)C[C@]2(O)C(=O)O [Ic-2] falls below 30 nM? Thanks.
Reply: False

Task item: Dear colleague, could you confirm whether Ki of CCCc1cc2c(s1)[C@@H](O)[C@H](O)C[C@]2(O)C(=O)O [Ic-13] falls below 30 nM? Thanks.
Reply: True

More entries:
Task item: Dear colleague, could you confirm whether Ki of O=C(O)[C@@]1(O)C[C@@H](O)[C@H](O)C(OCc2cccs2)=C1Cc1cccs1 [Ib-8] falls below 30 nM? Thanks.
Reply: False

Task item: Dear colleague, could you confirm whether Ki of O=C(O)[C@@]1(O)C[C@@H](O)[C@H](O)c2sc(CCc3ccccc3)cc21 [Ic-12] falls below 30 nM? Thanks.
Reply: False

====

# assayed.target: type II dehydroquinase from Mycobacterium tuberculosis (Mycobacterium tuberculosis, UniProt P9WPX7)
# Sequence (P9WPX7 whole entry): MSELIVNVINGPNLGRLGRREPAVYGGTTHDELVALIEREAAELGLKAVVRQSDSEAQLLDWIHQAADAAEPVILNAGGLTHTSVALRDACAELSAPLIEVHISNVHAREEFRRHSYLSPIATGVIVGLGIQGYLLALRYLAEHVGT
# measurement.protocol: biochemical
# particulars: pH = 7.0, 25° C., 50 mM Tris•HOAc; read-out: Inhibition constants Ki, M. tuberculosis
In this section we review reported Ki values for a set of compounds.
Numeric answer only, unit nM assumed.

Ki in this record for CCCC1C(=O)C(O)C(O)CC1(O)C(=O)O [(2R)-Ia-2, (2R)-2-propyl-3-dehydroquinic acid] : 1700

Ki in this record for O=C(O)[C@]1(O)C=C(OCc2ccc3sccc3c2)[C@@H](O)[C@H](O)C1 [Ib-7] : 31

Ki in this record for O=C1[C@@H](O)[C@H](O)C[C@](O)(C(=O)O)[C@@H]1Cc1ccccc1 [(2S)-Ia-3, (2S)-2-benzyl-3-dehydroquinic acid] : 90

Ki in this record for Cc1ccc2sc(COC3=C(Cc4cc5cc(C)ccc5s4)[C@@](O)(C(=O)O)C[C@@H](O)[C@@H]3O)cc2c1 [Ib-4] : 190

Ki in this record for C=CC[C@H]1C(=O)[C@@H](O)[C@H](O)C[C@]1(O)C(=O)O [(2R)-Ia-1, (2R)-2-allyl-3-dehydroquinic acid] : 760

More entries:
Ki in this record for O=C1[C@@H](O)[C@H](O)C[C@](O)(C(=O)O)[C@H]1Cc1ccccc1 [(2R)-Ia-3, (2R)-2-benzyl-3-dehydroquinic acid] : 100

Ki in this record for C=CCC1=C(OCc2cc3ccccc3s2)[C@@H](O)[C@H](O)C[C@]1(O)C(=O)O [Ib-5] : 1240

Ki in this record for C=CC[C@@H]1C(=O)[C@@H](O)[C@H](O)C[C@]1(O)C(=O)O [(2S)-Ia-1, (2S)-2-allyl-3-dehydroquinic acid] : 1850

====

In this section we review reported pKi values for a set of molecules.
# assayed.target: type II dehydroquinase from Mycobacterium tuberculosis (Mycobacterium tuberculosis, UniProt P9WPX7)
# measurement.protocol: biochemical
# particulars: Inhibition constants Ki, M. tuberculosis, pH = 7.0, 25° C., 50 mM Tris•HOAc
Keep in mind that pKi stands for -log10 of concentration in molar terms.

As a guide, the following entries are already answered.
pKi in this record for Cc1ccc(CC2C(=O)C(O)C(O)CC2(O)C(=O)O)cc1 (single isomer, unassigned) [(2R)-Ia-4] : 7.05

pKi in this record for C/C=C/c1cc2c(s1)[C@@H](O)[C@H](O)C[C@]2(O)C(=O)O : 7.01

More entries:
pKi in this record for Cc1ccc2sc(COC3=C[C@@](O)(C(=O)O)C[C@@H](O)[C@@H]3O)cc2c1 : 7.40

pKi in this record for O=C(O)[C@@]1(O)C[C@@H](O)[C@H](O)c2sc(-c3ccccc3)cc21 : 7.01

pKi in this record for O=C1C(O)C(O)CC(O)(C(=O)O)C1Cc1ccc2sccc2c1 (single isomer, unassigned) [(2S)-Ia-7] : 7.26

pKi in this record for O=C(O)[C@@]1(O)C[C@@H](O)[C@H](O)c2sc(/C=C/C3CC3)cc21 : 6.96

pKi in this record for COc1ccc(CC2C(=O)C(O)C(O)CC2(O)C(=O)O)cc1 (single isomer, unassigned) : 7.00

pKi in this record for CCc1cc2c(s1)[C@@H](O)[C@H](O)C[C@]2(O)C(=O)O : 6.73

pKi in this record for Cc1cc2c(s1)[C@@H](O)[C@H](O)C[C@]2(O)C(=O)O : 6.40
